# protocol-details: compounds raising F508del-CFTR protein level – cell-based, HeLa F508del-CFTR, immunofluorescence, viability, primary screen (AID 1224863)
# experimental-conditions: immunofluorescence total CFTR, 24 h, stronger effect = higher value; measured here: primary viability 10 ug/mL, library dosed in µg/mL unless noted
About 15 (0.1%) of roughly 10,000 compounds were called active. The list is a sample of the results.
Catalogue of viability readings, one per entry.
Give just the number in %; leave the unit off.

compound	unit-text	viability
C=CCn1c(-c2cccnc2)nn(CN2CCc3ccccc3C2)c1=S	%	111
N#Cc1nncn1-c1ncnc2sc3c(c12)CCC3	%	95
Cc1nn2c(nc(NC3CCCN(C)C3)c3ccccc32)c1Cl (configuration not stated)	%	72
CS(=O)(=O)CCC(=O)Nc1nc2c(s1)CCC2	%	92
NC1CC(=O)N(c2ccc(Oc3ccccc3)cc2)C1 (configuration not stated)	%	60
Clc1ccc(-n2nnnc2SCCCc2nc3ccccc3o2)cc1	%	84
CCOCCCNc1sc(S(C)(=O)=O)nc1S(=O)(=O)c1ccc(C)cc1	%	93
CC(c1nnc(-c2cccs2)o1)N1CCC(O)CC1 (configuration not stated)	%	99
Cc1ccsc1C(=O)N1CCN(S(=O)(=O)N(C)C2CCCCC2)CC1	%	83
C=CCn1c(SC(C)c2nnnn2-c2ccccc2)nnc1-c1ccoc1C (configuration not stated)	%	93

Prompt line: Fill in: viability of COc1ccc(S(=O)(=O)Nc2ccc(N3CCCC3)cc2)cc1OC is ___
Response line: 84

Prompt line: Queued: CC1Oc2ccc(NC(=O)C3=NN(C)C(=O)CC3)cc2NC1=O (configuration not stated)
Response line: 100

====

# protocol-details: compounds raising F508del-CFTR protein level – cell-based, HeLa F508del-CFTR, immunofluorescence, viability, primary screen (AID 1224863)
# experimental-conditions: immunofluorescence total CFTR, 24 h, stronger effect = higher value; measured here: primary viability 10 ug/mL, library dosed in µg/mL unless noted
Out of some 10,000 compounds screened, about 15 (0.1%) were called active. Not all results are given here.
property-name: viability
Please give the number followed by its unit.

Examples with answers:
compound	property-name	result
CCOCCSc1nnc(-c2ccccc2)n1C	viability	106%
CCCn1c(N)c(C(=O)CN2CCC(O)CC2)c(=O)[nH]c1=O	viability	91%
CN1CCN(S(=O)(=O)c2ccc(Sc3ccc(Br)cc3)nc2)CC1	viability	79%
Cc1noc2nc(-c3ccco3)cc(C(=O)OCc3cc(=O)n4cc(Cl)ccc4n3)c12	viability	101%
O=c1oc2ccccc2n1CN1CCCC(O)C1 (centres undefined)	viability	85%
O=C(C1CCCO1)N1CCN(Cc2ccc3c(c2)CCO3)CC1 (centres undefined)	viability	90%
Cc1cc(CN2CCN(CCS(=O)c3ccccc3)CC2)on1 (centres undefined)	viability	90%
CCc1c(C)sc2nc(SCCO)n(CCOC)c(=O)c12	viability	95%

With those in mind, consider the next compound.
Prompt line: Fill in: viability of COCC(C)NC(=O)c1sccc1C (centres undefined) is ___
Response line: 102%

====

# system-tested: Cystic fibrosis transmembrane conductance regulator (Homo sapiens) (UniProt P13569)
# Sequence (P13569 with tags, fused parts or gaps F508del): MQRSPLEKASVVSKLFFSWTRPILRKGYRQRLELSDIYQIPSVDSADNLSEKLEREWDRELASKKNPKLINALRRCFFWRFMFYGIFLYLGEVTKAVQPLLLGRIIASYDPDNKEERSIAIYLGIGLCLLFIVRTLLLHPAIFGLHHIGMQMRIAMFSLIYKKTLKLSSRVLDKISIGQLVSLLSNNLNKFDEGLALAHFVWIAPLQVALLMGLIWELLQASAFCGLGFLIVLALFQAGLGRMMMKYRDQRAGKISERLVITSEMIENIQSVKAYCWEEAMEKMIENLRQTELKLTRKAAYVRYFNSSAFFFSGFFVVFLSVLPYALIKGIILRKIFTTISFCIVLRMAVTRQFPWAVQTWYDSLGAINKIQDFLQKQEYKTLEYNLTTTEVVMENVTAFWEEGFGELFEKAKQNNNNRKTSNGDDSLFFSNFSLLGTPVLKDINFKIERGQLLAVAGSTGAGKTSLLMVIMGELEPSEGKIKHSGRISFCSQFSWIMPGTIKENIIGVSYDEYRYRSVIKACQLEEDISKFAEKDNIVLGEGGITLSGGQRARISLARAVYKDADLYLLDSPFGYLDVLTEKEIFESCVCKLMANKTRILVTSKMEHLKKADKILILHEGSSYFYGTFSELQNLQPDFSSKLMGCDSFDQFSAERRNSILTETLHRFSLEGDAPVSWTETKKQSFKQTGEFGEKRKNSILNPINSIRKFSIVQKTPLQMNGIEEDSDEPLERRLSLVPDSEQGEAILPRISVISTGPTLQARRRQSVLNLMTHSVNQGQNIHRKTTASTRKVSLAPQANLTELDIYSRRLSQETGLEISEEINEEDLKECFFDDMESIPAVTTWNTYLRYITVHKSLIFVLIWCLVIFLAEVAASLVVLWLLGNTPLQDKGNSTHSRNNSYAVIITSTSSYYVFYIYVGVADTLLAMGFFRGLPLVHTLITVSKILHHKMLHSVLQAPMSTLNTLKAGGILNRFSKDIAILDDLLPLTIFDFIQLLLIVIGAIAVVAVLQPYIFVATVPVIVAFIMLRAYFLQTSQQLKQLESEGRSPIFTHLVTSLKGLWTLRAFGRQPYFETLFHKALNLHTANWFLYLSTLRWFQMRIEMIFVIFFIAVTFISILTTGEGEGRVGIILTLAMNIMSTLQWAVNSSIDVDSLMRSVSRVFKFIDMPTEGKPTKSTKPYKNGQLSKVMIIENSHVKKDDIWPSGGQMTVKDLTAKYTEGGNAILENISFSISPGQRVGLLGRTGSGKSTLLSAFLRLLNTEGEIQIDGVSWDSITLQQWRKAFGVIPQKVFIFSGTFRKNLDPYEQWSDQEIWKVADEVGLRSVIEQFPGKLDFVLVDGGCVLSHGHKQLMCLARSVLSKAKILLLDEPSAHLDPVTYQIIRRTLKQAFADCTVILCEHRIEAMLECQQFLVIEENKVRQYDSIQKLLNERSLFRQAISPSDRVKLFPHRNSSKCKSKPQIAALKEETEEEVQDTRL
# protocol-details: compounds raising F508del-CFTR protein level – cell-based, HeLa F508del-CFTR, immunofluorescence, viability, primary screen (AID 1224863);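 for fold increase: total CFTR protein by anti-CFTR immunofluorescence in fixed cells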
# experimental-conditions: immunofluorescence total CFTR, 24 h; measured here: primary screen 10 ug/mL, library dosed in µg/mL, stronger effect = higher value unless noted
Among all 10,000 compounds or so, about 15 (0.1%) were called active. Not all results are given here.
Catalogue of fold increase readings, one per entry.
Note: the reply should be a number with no unit written.

compound	system-tested	fold increase
CCC(C)(C)NCC(=O)N1c2ccccc2NC(=O)C1(C)C	Cystic fibrosis transmembrane conductance regulator (Homo sapiens) (UniProt P13569)	1.11
Cc1nnc(COC(=O)C2=Cc3ccccc3OC2)o1	Cystic fibrosis transmembrane conductance regulator (Homo sapiens) (UniProt P13569)	1.03
CS(=O)(=O)NC1CCCN(c2nc(-c3ccccc3)nc3ccccc23)C1 (stereo unspecified)	Cystic fibrosis transmembrane conductance regulator (Homo sapiens) (UniProt P13569)	0.95

Prompt line: Fill in: fold increase of Cn1ncc2c(NCC(=O)NC(C)(C)C)ncnc21 is ___
Response line: 1.05

Prompt line: Queued: CNC(=O)CN(C)c1ncnc2sc3c(c12)CCCC3
Response line: 1.01

Prompt line: Queued: COCC(C)NC(=O)c1sccc1C (stereo unspecified)
Response line: 0.9

====

# system-tested: Cystic fibrosis transmembrane conductance regulator (Homo sapiens)
# protocol-details: compounds raising F508del-CFTR protein level – cell-based, HeLa F508del-CFTR, immunofluorescence, viability, primary screen (AID 1224863);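 for fold increase: total CFTR protein by anti-CFTR immunofluorescence in fixed cells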
# experimental-conditions: immunofluorescence total CFTR, 24 h; measured here: primary screen 10 ug/mL, library dosed in µg/mL, stronger effect = higher value unless noted
About 15 (0.1%) of roughly 10,000 compounds were called active. Only a sample is shown.
Catalogue of fold increase readings, one per entry.

Examples with answers:
molecule	result
O=S(=O)(c1ccc2ccccc2c1)N1CCN(S(=O)(=O)c2ccccc2Cl)CC1	1.06
COc1ccc(C)cc1-n1nnnc1SCC1CC1(Cl)Cl (configuration not stated)	0.87
CS(=O)(=O)c1ccc(Oc2ccc3c(c2)OCCO3)c([N+](=O)[O-])c1	0.98
CS(=O)(=O)CCC(=O)Nc1nc2c(s1)CCC2	1.13
CCOc1c(Br)cc(CNC(C)C2CCCO2)cc1Br (configuration not stated)	1.09
Cc1cccc2nc(CSc3ccc4ccccc4n3)cc(=O)n12	1.04

Prompt line: Short answer please: fold increase, Cystic fibrosis transmembrane conductance regulator (Homo sapiens), entry Cc1cc(C(=O)OC(C)C(N)=O)c(C)n1CC(F)(F)F (configuration not stated)
Response line: 1.05

Prompt line: Queued: FC(F)(F)c1cnc(Nc2ccc3c(c2)OCCO3)c(Cl)c1
Response line: 0.98

====

# protocol-details: compounds raising F508del-CFTR protein level – cell-based, HeLa F508del-CFTR, immunofluorescence, viability, primary screen (AID 1224863)
# experimental-conditions: immunofluorescence total CFTR, 24 h, stronger effect = higher value; measured here: primary viability 10 ug/mL, library dosed in µg/mL unless noted
The campaign covered roughly 10,000 compounds. About 15 (0.1%) were called active. A selection follows.
Sorting guide: entries reporting viability beneath 90% go in the condition met pile, the rest go in the condition not met pile.

molecule	qualitative-label
CC(C)CN1CC(C(=O)Nc2ccc3c(c2)OC2(CCCC2)O3)CC1=O (configuration not stated)	condition met
Cc1cnc(NC(=O)COCC2CC2)s1	condition not met
CCCCS(=O)(=O)Nc1ccc(F)c(N)c1	condition not met
CCC(C)(C)NC(=O)CCNC(=O)/C=C/c1ccco1	condition met
CN(Cc1ccccc1Cl)Cn1ncn(-c2cccc(Cl)c2)c1=S	condition not met
Cc1ccc(-n2nnnc2SCc2cn3cccc(C)c3n2)cc1C	condition met

Prompt line: Threshold test, viability < 90%: NC(=O)C1CCCN1S(=O)(=O)c1ccc(Cl)s1 (configuration not stated)
Response line: condition not met

====

# system-tested: Cystic fibrosis transmembrane conductance regulator (Homo sapiens)
# protocol-details: compounds raising F508del-CFTR protein level – cell-based, HeLa F508del-CFTR, immunofluorescence, viability, primary screen (AID 1224863);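 for fold increase: total CFTR protein by anti-CFTR immunofluorescence in fixed cells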
# experimental-conditions: immunofluorescence total CFTR, 24 h; measured here: primary screen 10 ug/mL, library dosed in µg/mL, stronger effect = higher value unless noted
Hit rate of the full screen: of about 10,000 compounds, about 15 (0.1%) were called active. The list is a sample of the results.
Catalogue of fold increase readings, one per entry.
Note: the reply should be a number with no unit written.

Examples with answers:
compound	property-name	quantitative-readout
CC1CCc2c(sc3nc(-c4cccnc4)nc(N4CCNC(=O)CC4)c23)C1 (stereo not given)	fold increase	0.94
Cc1ccc(C)c(CS(=O)(=O)Cc2ccccc2SC(F)F)c1	fold increase	1.03
COc1cc(OC)c(CNC(C)c2ccc(F)cc2F)c(OC)c1 (stereo not given)	fold increase	1.05
CC(C)Cn1nnc(-c2ccc(Cl)cc2)n1	fold increase	1.4

With those in mind, consider the next compound.
Prompt line: Fill in: fold increase of CN(C)S(=O)(=O)N1CCN(C(=O)Nc2cccc3c2CCCC3)CC1 is ___
Response line: 0.97

====

# system-tested: Cystic fibrosis transmembrane conductance regulator (Homo sapiens) (UniProt P13569)
# protocol-details: compounds raising F508del-CFTR protein level – cell-based, HeLa F508del-CFTR, immunofluorescence, viability, primary screen (AID 1224863);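 for fold increase: total CFTR protein by anti-CFTR immunofluorescence in fixed cells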
# experimental-conditions: immunofluorescence total CFTR, 24 h; measured here: primary screen 10 ug/mL, library dosed in µg/mL, stronger effect = higher value unless noted
Among all 10,000 compounds or so, about 15 (0.1%) were called active. The list is a sample of the results.
Catalogue of fold increase readings, one per entry.
Note: the reply should be a number with no unit written.

Prompt line: Fill in: fold increase of CCCCOCCCNS(=O)(=O)c1ccc(S(=O)(=O)C(F)F)cc1 is ___
Response line: 0.94

Prompt line: Queued: CCCn1c(N)c(C(=O)CN2CCC(O)CC2)c(=O)[nH]c1=O
Response line: 1.07

Prompt line: Queued: CC(C)(C)OC(=O)N1CC=C(n2c(=O)n(CN3CCN(c4ccccc4)CC3)c3ccccc32)CC1
Response line: 1.06

Prompt line: Queued: COc1cc(OC)cc(-c2nnc(SCCc3ccccc3)o2)c1
Response line: 0.99

Prompt line: Queued: CC(NCC(O)c1ccccc1)c1ccccc1 (centres undefined)
Response line: 1.06

Prompt line: Queued: Cc1cc(-c2nccn2C)c(=O)[nH]n1
Response line: 1.08

Prompt line: Queued: N#CCSc1nc2sc3c(c2c(=O)n1C1CCCC1)CCCC3
Response line: 0.98

Prompt line: Queued: Cc1nc(N2CCC(NS(C)(=O)=O)CC2)c2c3c(sc2n1)CCC3
Response line: 0.99

Prompt line: Queued: C=CCNC(=O)NC(=O)CN(Cc1nccn1C(F)F)C1CC1
Response line: 1.18

Prompt line: Queued: CC(OC(=O)C1=Cc2ccccc2OC1)C(=O)C12CC3CC(CC(C3)C1)C2 (centres undefined)
Response line: 1.1

Prompt line: Queued: O=C1c2ccccc2S(=O)(=O)NN1Cc1ccc(Br)cc1
Response line: 0.99

Prompt line: Queued: COC(=O)c1ccc(OCC(=O)c2ccc3c(c2)CCO3)c(OC)c1
Response line: 1.01

Prompt line: Queued: C=CCn1c(C)cc(-c2csc(NC(=O)C3CC3)n2)c1C
Response line: 1.02

Prompt line: Queued: Fc1ccc(-c2[nH]ncc2CNCc2ccccc2Cn2cncn2)cc1
Response line: 1.01

Prompt line: Queued: Clc1ccc(-c2nc(Sc3ccccc3Cl)c3c4c(sc3n2)CCC4)cc1
Response line: 1.15

Prompt line: Queued: Cc1nn2c(nc(NC3CCCN(C)C3)c3ccccc32)c1Cl (centres undefined)
Response line: 2.03

Prompt line: Queued: N#Cc1c(/C=C/c2ccc3c(c2)OCCO3)cc(-c2cccc(Cl)c2)n2c1nc1ccccc12
Response line: 1.16

Prompt line: Queued: CCC1CCC2(CC1)NC(=O)N(CC(=O)NCC1CCCO1)C2=O (centres undefined)
Response line: 0.98

Prompt line: Queued: O=C(NC1CCCCCC1)C1CC=CCC1 (centres undefined)
Response line: 1.02

Prompt line: Queued: CCc1cc(OCCCCNC)ccc1Cl
Response line: 1.06

Prompt line: Queued: CC(C)c1ccc(C(NC(=O)CN2C(=O)NC(C)(c3ccc4c(c3)OCO4)C2=O)C(C)C)cc1 (centres undefined)
Response line: 0.84

Prompt line: Queued: CN(C)S(=O)(=O)c1ccc(CN2C(=O)NC(C)(c3ccco3)C2=O)o1 (centres undefined)
Response line: 0.98
